Ref: the supplement of paper PMC5998384

System: HeLa Kyoto;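 note: HeLa Kyoto cells synchronized by double thymidine or nocodazole block, proteins quantified by TMT10plex mass spectrometry, three independent biological replicates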
Experiment: melting temperature (median over replicates), in situ; higher = more thermally stable
Conditions: cell cycle stage: mitosis
readout name: melting temperature (°C)
# value in °C; strip the unit string

MPSSPLRVAVVCSSNQNRSMEAHNILSKRGFSVRSFGTGTHVKLPGPAPDKPNVYDFKTTYDQMYNDLLRKDKELYTQNGILHMLDRNKRIKPRPERFQNCKDLFDLILTCEERVYDQVVEDLNSREQETCQPVHVVNVDIQDNHEEATLGAFLICELCQCIQHTEDMENEIDELLQEFEEKSGRTFLHTVCFY [SSU72] ... 49.4
MATKIDKEACRAAYNLVRDDGSAVIWVTFKYDGSTIVPGEQGAEYQHFIQQCTDDVRLFAFVRFTTGDAMSKRSKFALITWIGENVSGLQRAKTGTDKTLVKEVVQNFAKEFVISDRKELEEDFIKSELKKAGGANYDAQTE [COTL1] ... 52.8
MSGLSGPPARRGPFPLALLLLFLLGPRLVLAISFHLPINSRKCLREEIHKDLLVTGAYEISDQSGGAGGLRSHLKITDSAGHILYSKEDATKGKFAFTTEDYDMFEVCFESKGTGRIPDQLVILDMKHGVEAKNYEEIAKVEKLKPLEVELRRLEDLSESIVNDFAYMKKREEEMRDTNESTNTRVLYFSIFSMFCLIGLATWQVFYLRRFFKAKKLIE [TMED10] ... 55.8

// next item, melting temperature requested
Prompt: Name the reported melting temperature value associated with the sequence MAPLRFSANLSWLFPELSGLPARVRAAGSSGFEAVEVAWPYAETPEALARAAREAGLRLVLINTPPGDQEKGEMGLGAVPGRQAAFREGLEQAVRYAKALGCPRIHLMAGRVPQGADRIAVKAEMEAVFLENLRHAAGVLAQEDLVGLLEPINTRITDPQYFLDTPQQAAAILQKVGRPNLQLQMDIFHWQIMDGNLTGNIREFLPIVGHVQVAQVPGRGEPSSPGELNFPYLFQLLEDEGYKGFVGCEYQPRGDTVEGLSWLRSYWDRRGHPEAGQ [HYI]
Response: 54.7
